- Test system: COLO 205 colon
- test details: NCI-60 one-dose screen, 48 h (100 = growth as untreated, 0 = no growth, -100 = all killed)
- measurement setup: 10 µM unless noted
This is part of a sample that, as a whole, favours compounds with a hit. Of some 83,000 tested, about 20% had one in any assay.
Kindly state growth for each of the entries shown.
Give the value in % but do not write % after it.

Param readout = growth; param system = COLO 205 colon; param query = `O=C(NN1C(=O)/C(=C/C=C/c2ccc([N+](=O)[O-])o2)SC1=S)c1ccc(Cl)cc1` ; response: value
-94.8

So what growth did `COc1ccc(NC(=O)Cn2c(O)c(N=Nc3ccc(S(N)(=O)=O)cc3)c3ccccc32)cc1` get with COLO 205 colon?
58.5

Item `COc1cc(/C=C/C(=O)c2nnn(-c3ccc(Cl)cc3)c2C)cc(OC)c1OC` with COLO 205 colon - growth?
41.5

Requested read-out growth, target or system COLO 205 colon, entry `O=C(/C=C/c1cccc(OCc2ccc(F)cc2)c1)c1nc2ccccc2[nH]1`
13.8

Query growth on COLO 205 colon for `CCN1CCN(Cc2ccc(C(=O)Nc3cccc(C#Cc4cccc5[nH]nc(N)c45)c3)cc2C(F)(F)F)CC1`
-86.6

Query for COLO 205 colon: what growth does the record show for `Cn1cc(-c2nnc(N)nc2-c2c[nH]c3ccccc23)c2cccnc21` ?
25.9

Write down the reported growth of `O=C(O)c1cccc(-c2ccc(/C=N/NC(=O)c3[nH]c4ccc(Br)cc4c3-c3ccccc3)s2)c1` , test system: COLO 205 colon.
101

Under COLO 205 colon: growth value of `NS(=O)(=O)c1ccc(-n2cc(-c3cccc(NC(=O)c4cc(C(F)(F)F)cc(C(F)(F)F)c4)c3)nn2)cc1` ?
91.7

Lookup: growth / COLO 205 colon / `Cc1ccc(Cc2cnc(NC(=O)c3ccc(/C=C4\SC(=S)N(C)C4=O)cc3)s2)cc1`
24.4

Lab request: please report growth under test system COLO 205 colon for `CC(C)CSc1nc(NCCc2c[nH]c3ccccc23)c(C#N)c(-c2ccccc2)n1`
50.2

Give growth (COLO 205 colon) of the following molecule: `N#Cc1c(-c2cccc(Cl)c2Cl)cc(-c2ccc3ccccc3c2)[nH]c1=O`
116

Hi! What's the reported growth for C=C1CCC2C3(C)COC(c4cc(F)cc(F)c4)OC3CCC2(C)C1CC(O)C1=CCOC1=O (stereo not drawn) on COLO 205 colon?
59.5

What value of growth on COLO 205 colon does `OCNc1ccc(-n2cnc3cc(-c4ccc(O)cc4)ccc32)cc1C(F)(F)F` have?
43.5

Which measured growth belongs to `COc1cc2oc(-c3cccc(NC(=O)[C@H](CC(N)=O)NC(=O)OC(C)(C)C)c3)cc(=O)c2c(OC)c1OC` , tested on COLO 205 colon?
109

# value lookup — system COLO 205 colon, readout growth, item COc1ccc(C2CC(c3ccc(S(=O)(=O)NCCNc4nc(Nc5ccc(F)cc5)nc(N(C)C)n4)cc3)=Nc3c(N)nc(N)nc3N2)cc1 (stereo not drawn)
82.8

For the record `COc1ccc2[nH]c(O)c(N=NC(=O)Cn3c(-c4ccccc4)nc4cc(C)ccc43)c2c1` , what value of growth is listed for COLO 205 colon?
64.5

Provide the documented growth with COLO 205 colon as the system for CCOC(=O)C1=C(N)N(c2ccccc2)C2=C(C(=O)CC(C)(C)C2)C1c1ccc(N2CCOCC2)cc1 (stereo not drawn)
108

Any idea what growth came out for `Cc1ccc2c(N)c(C(=O)Nc3ccc(-c4ccccc4)cc3)sc2n1` on COLO 205 colon?
90.9
